Where these numbers come from: ChEMBL document CHEMBL5137031

SYSTEM_NAME: Replicase polyprotein 1ab (Severe acute respiratory syndrome coronavirus 2)
pIC50: −log10 of the molar value.
READOUT_NAME: pIC50

C=CC[C@H](NC(=O)/C=C/c1ccccc1)C(=O)N[C@H](C=O)C[C@@H]1CCCNC1=O ... 5.87
CC(C)C[C@H](NC(=O)[C@@H](NC(=O)c1cc2ccccc2[nH]1)C(C)C)C(=O)N[C@H](C=O)C[C@@H]1CCCNC1=O ... 6.53
CC(C)C[C@H](NC(=O)[C@@H](NC(=O)/C=C/c1cccc(F)c1)C(C)C)C(=O)N[C@H](C=O)C[C@@H]1CCCNC1=O ... 6.59
CC(C)C[C@H](NC(=O)/C=C/c1ccccc1)C(=O)N[C@H](C=O)C[C@@H]1CCCNC1=O ... 6.49
CC(C)C[C@H](NC(=O)[C@@H](NC(=O)c1ccncc1)C(C)C)C(=O)N[C@H](C=O)C[C@@H]1CCCNC1=O ... 6.82
CC(C)C[C@H](NC(=O)[C@@H](NC(=O)c1cccnc1)C(C)C)C(=O)N[C@H](C=O)C[C@@H]1CCCNC1=O ... 6.19
Cc1ccc(/C=C/C(=O)N[C@H](C(=O)N[C@@H](CC(C)C)C(=O)N[C@H](C=O)C[C@@H]2CCCNC2=O)C(C)C)cc1 ... 6.71
